Sourced from PubChem BioAssay AID1205

Experiment: DSSTox (CPDBAS) Carcinogenic Potency Database Summary MultiCellCall Results
Conditions: animal carcinogenicity bioassays, multi-cell call summary
The source made the active and inactive calls.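 The calls were made as follows: active = tumour findings in long-term animal cancer tests in more than one sex, species or organ; inactive = no tumour finding and more than one negative test.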
Bench note: report the call from y (active), n (inactive)

Solved cases (3 shown):
Cc1cc(O)c2c(c1O)C(=O)C13C(=C2O)C(=O)C2C(O)C1C1C(O)C3C(=O)C3=C(O)c4c(O)cc(C)c(O)c4C(=O)C321 (stereo not given): y
CCCCCCCCCCCCN=C(N)N: n
Nc1ccc(Cc2ccc(N)c(Cl)c2)cc1Cl: y

IN: I'd appreciate the recorded outcome for Cc1ccc2c(c1N)C(=O)c1ccccc1C2=O from this test.
OUT: y

IN: I'd appreciate the recorded outcome for CC[N+]([O-])=NC from this test.
OUT: y

IN: I'd appreciate the recorded outcome for Cc1noc(NS(=O)(=O)c2ccc(N)cc2)c1C from this test.
OUT: n

IN: I'd appreciate the recorded outcome for CCCCCCc1ccc(O)cc1O from this test.
OUT: n

IN: I'd appreciate the recorded outcome for CC(Oc1c(Cl)cccc1Cl)C1=NCCN1 (stereo not given) from this test.
OUT: n

IN: I'd appreciate the recorded outcome for CC(=O)NNc1ccc(CO)cc1 from this test.
OUT: y

IN: I'd appreciate the recorded outcome for O.O=S(=O)([O-])[O-].[Mn+2] from this test.
OUT: n
